target under test: T1, Cathepsin K (UniProt P43235 115-329)
T1 sequence (looked up): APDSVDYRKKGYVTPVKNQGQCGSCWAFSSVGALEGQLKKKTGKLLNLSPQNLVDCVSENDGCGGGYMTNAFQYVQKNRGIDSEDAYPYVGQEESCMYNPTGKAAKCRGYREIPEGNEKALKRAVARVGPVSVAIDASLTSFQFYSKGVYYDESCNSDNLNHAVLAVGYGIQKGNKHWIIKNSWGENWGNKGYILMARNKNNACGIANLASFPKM
assay overview: fluorescence-based enzyme inhibition assay
Positions of bridges follow the written chain, without caps; N, C: chain ends. No end group written: not given here. alpha,alpha'‑meta‑xylylene = alpha,alpha'-meta-xylylene linker (from a,a'-dibromo-meta-xylene) bridging two cysteines via bis-thioether
assay readout: Ki

Q: Fill in the blank: the reported Ki of SCEFRCVMNGF (linker 2-6 via alpha,alpha'‑meta‑xylylene) [SCEFRCVMNGF (SEQ ID NO:3)] is ____.
A: > 100 µM

Reference source for all entries: patent US20150133367A1
